Here, each record is paired with measured TGI data.
Test system: UACC-62 melanoma
Experiment: NCI tumour cell line growth inhibition, 48 h
RECORDED METRIC: TGI

Cc1ccccc1N=Nc1cc(C)c(N=Nc2c(O)ccc3ccccc23)cc1C; > 100 µM
COc1cc(/C=N/N=C(\N)NO)cc(Cl)c1O; > 100 µM
CN1CC[C@]2(C)c3c(O)cccc3CC3CCCC1C32C (stereo partly specified); > 100 µM
COc1cccc2c1C(=O)c1c(O)c3c(c(O)c1C2=O)CC(O)(C(O)CO)CC3OC1CC2C(OC3COCC(C#N)N32)C(C)O1 (stereo unspecified); < 0.01 µM
O=C(Nc1ccn(C2CC(O)C(CO)O2)c(=O)n1)c1ccccc1 (stereo unspecified); > 100 µM
CC1=NC(C(=O)O)Cc2c1[nH]c1ccccc21 (stereo unspecified); > 100 µM
O=C1c2ccccc2-c2c1c1ccccc1c(=O)n2-c1cccnc1; > 85.8 µM
O=c1c2sc3nc(NCCN4CCCCC4)ncc3c2ncn1-c1ccccc1; > 100 µM
NC(=O)NN=C1C[C@H]2CCCC[C@H]2C1; > 100 µM
COc1ccc2c(c1)O[C@@H]1c3ccc(OC)cc3OC[C@H]21; > 100 µM
Nc1nc[n+](Cc2ccccc2CCO)c2nc[nH]c12; > 100 µM
